Molecular target: PAR-2 (Homo sapiens)
Construct: intracellular Ca^2+ level change by PAR-2 agonist in human keratinocytes expressing PAR-2; host or cells: primary human keratinocytes, passage 3 to 5
Sequence (P55085 26-397): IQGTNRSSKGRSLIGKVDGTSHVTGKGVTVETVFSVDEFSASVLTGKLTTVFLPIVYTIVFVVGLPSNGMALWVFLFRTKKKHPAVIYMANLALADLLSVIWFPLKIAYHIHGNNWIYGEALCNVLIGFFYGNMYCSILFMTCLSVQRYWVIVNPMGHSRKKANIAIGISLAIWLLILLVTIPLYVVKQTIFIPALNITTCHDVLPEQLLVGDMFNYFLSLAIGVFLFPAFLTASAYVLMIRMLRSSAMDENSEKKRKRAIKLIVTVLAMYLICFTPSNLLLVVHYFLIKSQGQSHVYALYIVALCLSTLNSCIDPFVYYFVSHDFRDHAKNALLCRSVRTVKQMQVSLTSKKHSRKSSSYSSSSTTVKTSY
Test: Assay of intracellular Ca2+ level in human keratinocytes stimulated with PAR-2 agonist peptide
Format: cell-based
Details: compound final concentration 10 μg/mL; PAR-2 agonist SLIGKV 10 μM; cultured human keratinocytes; (1-AUCantagonist/AUCcontrol)×100 of time-fluorescence intensity curve; read-out: Inhibition Rate (%) (Means ± Standard Error, n = 3)
MEASUREMENT LABEL: inhibition at 10 µg/mL (%)
Give bare numbers, in %.

[[record]]
compound_smiles = "CN1CCN(Cc2cn(Cc3c(Cl)cccc3Cl)c3ccc(NC(=O)NCC(=O)N[C@@H](CCCCN)C(=O)N[C@@H](Cc4ccccc4)C(=O)NC(c4ccccc4)c4ccccc4)cc23)CC1"
target_or_system = "PAR-2 (Homo sapiens)"
measurement_label = "inhibition at 10 µg/mL"
assay_result = 52.2


For each listed entry, give its inhibition at 10 µg/mL.
1. NCC[C@H](NC(=O)CNC(=O)Nc1ccc2c(c1)c(CN1CCCC1)cn2Cc1c(Cl)cccc1Cl)C(=O)N[C@@H](Cc1ccccc1)C(=O)NCc1ccccc1
2. NCC[C@H](NC(=O)CNC(=O)Nc1ccc2c(c1)c(CN1CCCC1)cn2Cc1c(Cl)cccc1Cl)C(=O)N[C@@H](Cc1ccccc1)C(=O)NC(c1ccccc1)c1ccccc1
3. NCCCC[C@H](NC(=O)CNC(=O)Nc1ccc2c(c1)c(CN1CCCC1)cn2Cc1c(Cl)cccc1Cl)C(=O)N[C@@H](Cc1ccccc1)C(=O)NCc1ccccc1

1. 33.6
2. 32
3. 14.2

src = patent US8268789B2
